Values from paper PMC5467235

Target: ASK1-TIR1-IAA6 co-receptor complex (TIR1-IAA6) (Arabidopsis thaliana, UniProt Q38824+Q570C0)
Construct: ASK1-TIR1 from insect cells (Sf9 or Hi5), purified; IAA6 N-terminally GST-tagged from E. coli, full length; with SKP1-like protein 1A
Sequence (Q570C0 1-594): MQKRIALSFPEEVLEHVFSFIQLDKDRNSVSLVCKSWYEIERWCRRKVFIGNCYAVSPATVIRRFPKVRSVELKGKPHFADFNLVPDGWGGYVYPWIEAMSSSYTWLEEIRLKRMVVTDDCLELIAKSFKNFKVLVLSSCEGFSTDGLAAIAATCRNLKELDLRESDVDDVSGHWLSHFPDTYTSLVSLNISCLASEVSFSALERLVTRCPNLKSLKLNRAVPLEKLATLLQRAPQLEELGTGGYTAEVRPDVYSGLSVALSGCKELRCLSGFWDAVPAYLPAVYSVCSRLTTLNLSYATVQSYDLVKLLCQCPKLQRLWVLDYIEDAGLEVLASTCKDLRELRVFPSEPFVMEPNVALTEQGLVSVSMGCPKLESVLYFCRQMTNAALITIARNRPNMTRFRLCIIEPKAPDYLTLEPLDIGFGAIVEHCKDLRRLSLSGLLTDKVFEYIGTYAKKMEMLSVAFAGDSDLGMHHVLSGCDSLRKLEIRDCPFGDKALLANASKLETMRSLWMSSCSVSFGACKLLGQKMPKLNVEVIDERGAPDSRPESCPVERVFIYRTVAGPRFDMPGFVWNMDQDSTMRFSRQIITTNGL
Sequence (Q38824 1-189): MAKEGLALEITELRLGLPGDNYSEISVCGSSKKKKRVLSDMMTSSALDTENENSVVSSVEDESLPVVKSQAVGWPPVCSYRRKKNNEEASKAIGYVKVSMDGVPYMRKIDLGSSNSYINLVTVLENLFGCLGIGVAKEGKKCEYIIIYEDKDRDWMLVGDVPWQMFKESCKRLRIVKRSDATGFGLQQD
Sequence (Q39255 1-160 partner): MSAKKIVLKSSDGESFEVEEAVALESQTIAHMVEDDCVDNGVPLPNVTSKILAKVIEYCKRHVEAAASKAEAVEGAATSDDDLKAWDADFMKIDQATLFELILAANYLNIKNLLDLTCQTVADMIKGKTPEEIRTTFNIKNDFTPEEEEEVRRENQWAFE
Test: [3H]IAA saturation radioligand binding
measurementType: pKd
Please express pKd as -log10 of the molar concentration.

[in] So what's the measured pKd for this one? O=C(O)Cc1c[nH]c2ccccc12 [IAA]
[out] 7.14
